Biological target: human melanocortin-4 receptor (recombinant hMC4-R) (human, UniProt P32245 1-332)
Sequence (P32245 whole entry): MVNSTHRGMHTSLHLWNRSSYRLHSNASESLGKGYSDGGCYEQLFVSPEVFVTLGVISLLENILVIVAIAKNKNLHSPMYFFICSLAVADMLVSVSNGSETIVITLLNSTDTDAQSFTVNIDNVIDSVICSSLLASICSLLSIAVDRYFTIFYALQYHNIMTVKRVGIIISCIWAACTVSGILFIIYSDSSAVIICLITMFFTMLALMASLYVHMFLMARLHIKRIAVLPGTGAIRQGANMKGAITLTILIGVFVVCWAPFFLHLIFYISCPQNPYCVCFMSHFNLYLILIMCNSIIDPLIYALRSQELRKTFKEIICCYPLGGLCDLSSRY
Assay: cell-based or functional assay
Numbered stars: 1 amine (or outer) side, 2 acyl side, 3 side chain; on linkers, the order of the positions; unused ones are H or OH. Bridge positions count the residues as written; N and C are the ends. Square brackets hold non-standard residues; d marks the D form. * marks the point of attachment. Ser(Bzl) = O-benzyl-serine, O=C([C@H](COCc1ccccc1)N[*:1])[*:2]; Orn = NCCC[C@H](N)C(=O)O; Dab = NCC[C@H](N)C(=O)O; Bn = c1ccc(C*)cc1
recorded-metric: Ec50 (nM), cAMP

For orientation, consider the following solved cases.
1. Ac-R[Orn][Dab][dF]RWE-NH2 (lactam 2-7) [Peptide No. 43: Ac-Arg-cyclo(Orn-Dab-D-Phe-Arg-Trp-Glu)-NH2]
0.1
2. Ac-R[Orn]S(Bn)[dF]RWE-OH (lactam 2-7) [Peptide No. 48: Ac-Arg-cyclo(Orn-Ser(Bzl)-D-Phe-Arg-Trp-Glu)-OH]
3
3. Ac-RDQ[dF]RWK-NH2 (lactam 2-7) [Asp...Lys analog of peptides No. 12 and No. 44: Ac-Arg-cyclo(Asp-Gln-D-Phe-Arg-Trp-Lys)-NH2]
17
4. Ac-R[Orn]A[dF]RWE-NH2 (lactam 2-7; SMILES CC(=O)N[C@@H](CCCNC(=N)N)C(=O)N[C@H]1CCCNC(=O)CC[C@@H](C(N)=O)NC(=O)[C@H](Cc2c[nH]c3ccccc23)NC(=O)[C@H](CCCNC(=N)N)NC(=O)[C@@H](Cc2ccccc2)NC(=O)[C@H](C)NC1=O) [Peptide No. 41: Ac-Arg-cyclo(Orn-Ala-D-Phe-Arg-Trp-Glu)-NH2]
7
5. Ac-RDA[dF]RWK-NH2 (lactam 2-7, also called Peptide Structure (Asp...Lys) in the row of No. 41) [Asp...Lys analog of peptide No. 41: Ac-Arg-cyclo(Asp-Ala-D-Phe-Arg-Trp-Lys)-NH2]
37
6. Ac-RD[Ser(Bzl)][dF]RWK-OH (lactam 2-7, also called Peptide Structure (Asp...Lys) in the rows of No. 17 and No. 48) [Asp...Lys analog of peptides No. 17 and No. 48: Ac-Arg-cyclo(Asp-Ser(Bzl)-D-Phe-Arg-Trp-Lys)-OH]
5

I = Ac-K[Orn]H[dF]RWE-NH2 (lactam 2-7) [Peptide No. 40: Ac-Lys-cyclo(Orn-His-D-Phe-Arg-Trp-Glu)-NH2]
II = Ac-R[Orn]H[dF]RWE-NH2 (lactam 2-7) [Peptide No. 38: Ac-Arg-cyclo(Orn-His-D-Phe-Arg-Trp-Glu)-NH2]
III = Ac-RD[Dab][dF]RWK-NH2 (lactam 2-7) [Asp...Lys analog of peptides No. 6 and No. 43: Ac-Arg-cyclo(Asp-Dab-D-Phe-Arg-Trp-Lys)-NH2]
IV = Ac-RD[Dab][dF]RWK-OH (lactam 2-7) [Asp...Lys analog of peptides No. 5 and No. 42: Ac-Arg-cyclo(Asp-Dab-D-Phe-Arg-Trp-Lys)-OH]
V = Ac-R[Orn]H[dF]RWE-OH (lactam 2-7) [Peptide No. 37: Ac-Arg-cyclo(Orn-His-D-Phe-Arg-Trp-Glu)-OH]
q: Hey, can you sort those binders up there by Ec50 (nM), cAMP, smallest first? Please reply with the labels ordered as requested. Many thanks.
a: I, III, V, II, IV
(I: 0.2 nM, III: 0.3 nM, V: 0.6 nM, II: 1 nM, IV: 4 nM)
